Tested on: HS 578T breast
assay-name: NCI tumour cell line growth inhibition, 48 h
Please provide measured TGI for the entries that follow.

Ask: What reported TGI corresponds to "O=c1ssc2c1Nc1c(ssc1=O)S2" on HS 578T breast?
Reply: > 100 µM

Ask: What reported TGI corresponds to Nc1ccn(C2OC(CO)C(O)C2(F)F)c(=O)n1 (stereo not drawn) on HS 578T breast?
Reply: > 100 µM

Ask: What reported TGI corresponds to "CCC(=O)O[C@@H]([C@H](C)[C@H]1OC(CC)=C(C)C(=O)[C@@H]1C)[C@@H](C)C(=O)CC" on HS 578T breast?
Reply: > 100 µM
